From: PubChem BioAssay (NCI)

Tested on: MOLT-4 leukemia
Test: NCI-60 one-dose screen, 48 h (100 = growth as untreated, 0 = no growth, -100 = all killed)
Settings: 10 µM unless noted
The panel holds about 83,000 compounds, 20% with a hit somewhere; the sample as a whole holds those more often.

Compound | System | growth, %
O=C1C(Cl)=C(NCCN2CCOCC2)C(=O)c2ncccc21 | MOLT-4 leukemia | 8.73
N=C(N)c1ccc(-c2ccc(-c3ccc(Cl)cc3Cl)s2)cc1F | MOLT-4 leukemia | -47.2
N=c1c2c(=N)n3c(nc2nc2n1-c1ccccc1Sc1ccccc1-2)sc1cc(Cl)ccc13 | MOLT-4 leukemia | 48.4
Nc1ccc([N+](=O)[O-])cc1N=C/C=C/c1ccccc1 | MOLT-4 leukemia | 14.8
COc1ccc(NC(=O)c2sc3nc4c(cc3c2N)CCCC4)cc1 | MOLT-4 leukemia | 21.5
CC(C)CCSc1nc(Nc2ccccc2)c(C#N)c(-c2ccccc2)n1 | MOLT-4 leukemia | 80.7
C#CC#CC#CC#CC#CC#CC#CC#CC[C@H]1OC[C@@H](COC(=O)O[C@@H](C(=O)O[C@H]2C[C@@]3(O)[C@@H](OC(=O)c4ccccc4)[C@@H]4[C@]5(OC(C)=O)CO[C@@H]5C[C@H](O)[C@@]4(C)C(=O)[C@H](OC(C)=O)C(=C2C)C3(C)C)[C@@H](NC(=O)c2ccccc2)c2ccccc2)O1 | MOLT-4 leukemia | 42.5
CCN(CC)CCCC(C)Nc1ccc2cc(OC)ccc2n1 (stereo not drawn) | MOLT-4 leukemia | 116
CC(C)(C)c1cc(C=Nc2cccc(C(F)(F)F)c2)c(O)c(C(C)(C)C)c1 | MOLT-4 leukemia | 85.3
COc1cc2oc(-c3cccc(NC(=O)c4ccc5c(c4)OCO5)c3)cc(=O)c2c(OC)c1OC | MOLT-4 leukemia | 2.9
COc1cc2c(cc1O)[C@@]1(C)[C@H](c3ccccc3Br)OC(=O)N1CC2 | MOLT-4 leukemia | 90.8
C=C1C(=O)O[C@H]2[C@H]1CC/C(CNC(=O)c1cc3ccccc3[nH]1)=C\CC[C@@]1(C)O[C@@H]21 | MOLT-4 leukemia | -35.5
Nc1c(C(=O)Nc2ccncc2)sc2nc3c(cc12)CCCCC3 | MOLT-4 leukemia | 40.3
Cc1[nH]c(/C=C/C(=O)c2ccc(C(F)(F)F)c(F)c2)c(C)c1C(=O)NCC(C)C | MOLT-4 leukemia | 101
O=C1c2cc3c(cc2-c2c1c1ccc(Cl)cc1c(=O)n2C[C@H](O)CO)OCO3 | MOLT-4 leukemia | -17.2
COC(=O)C1=C(C(=O)Nc2cccnc2)C2OC1(C(Cc1ccccc1)Oc1ccccc1)C1OC21 (stereo not drawn) | MOLT-4 leukemia | -31.5
CCOC(=O)c1c2c(n3c1NCC3)-c1ccccc1C2=O | MOLT-4 leukemia | 87.8
O=C(/C=C/c1ccc(Br)cc1)c1ccc(-n2cc(CN3CCN(c4cc5c(cc4F)c(=O)c(C(=O)O)cn5C4CC4)CC3)nn2)cc1 | MOLT-4 leukemia | 67.7
CCCC(O)Cn1ncc(C(=O)OCC)c1NC(=O)NCc1cccc(F)c1 (stereo not drawn) | MOLT-4 leukemia | 70.6
COc1cc2c(/C=C3\C(=O)Nc4ccccc43)c(C(=O)O)[nH]c2cc1C | MOLT-4 leukemia | 84
O=C(O)CCCc1cnc2c3sccc3nc(SCc3c(Cl)cccc3Cl)n12 | MOLT-4 leukemia | 50.5
COc1cccc(/C=C/C(=O)c2cc3c(N)c(C(=O)Nc4ccccc4C)sc3nc2C)c1 | MOLT-4 leukemia | 32.6
CC(=O)N/C(=C1/OC(C(O)C(O)C(O)CO)CN1C)[P+](c1ccccc1)(c1ccccc1)c1ccccc1 (stereo not drawn) | MOLT-4 leukemia | 102
Cc1ccc(S(=O)(=O)n2cc(C3C(Cl)C(=O)N3c3ccc(N4CCOCC4=O)cc3)c3ccccc32)cc1 (stereo not drawn) | MOLT-4 leukemia | 47.5
COc1ccc(Cl)cc1Nc1nc(C(F)(F)F)ccc1C(=O)N/N=C/c1ccccc1Cl | MOLT-4 leukemia | 3.07
CNC(=O)c1c(NC(=O)c2ccc(C(C)(C)C)cc2)sc2c(CN(C)C)c(O)ccc12 | MOLT-4 leukemia | -35.5
C#CCOc1ccc2ncnc(Nc3cccc(NC(=O)CCl)c3)c2c1 | MOLT-4 leukemia | 18.1
NS(=O)(=O)c1ccc(N/C=C/C(=O)c2cc3ccccc3oc2=O)cc1 | MOLT-4 leukemia | 103
COc1ccc(C(c2cc(OC)c(OC)c(OC)c2)N2CCCC2)cc1 (stereo not drawn) | MOLT-4 leukemia | 78.1
COc1cc(-c2nc(SCCC(C)C)nc(N3CCOCC3)c2C#N)cc(OC)c1OC | MOLT-4 leukemia | 89.2
COc1cc(C(=O)c2c(N)ncn2-c2ccccc2)cc(OC)c1OC | MOLT-4 leukemia | 109
COc1ccc(NC(=O)c2sc3nc(C)c(C(O)c4ccccc4)cc3c2N)cc1 (stereo not drawn) | MOLT-4 leukemia | 12.5
Cc1ccc(C)c(-n2c(-c3ccc(Br)cc3)csc2=NC(=O)c2ccccc2F)c1 | MOLT-4 leukemia | 30.5
COc1ccc(Cc2cnc(NC(=O)c3sc4ccccc4c3Cl)s2)cc1 | MOLT-4 leukemia | 14.8
CCN(CC)c1ccc(/C=C\c2cc(C)c3cc(C)ccc3n2)cc1 | MOLT-4 leukemia | 40.2
COc1ccc(NC(=O)c2ccc(C(=O)Nc3ccc(OC)cc3OC)cc2)c(OC)c1 | MOLT-4 leukemia | 94.3
COc1cccc(/C=C2\COc3ccc(O)cc3C2=O)c1 | MOLT-4 leukemia | 40.2
CCOC(=O)CSc1nc2sc3c(c2c(=O)n1-c1ccc([N+](=O)[O-])cc1)CCCCC3 | MOLT-4 leukemia | 97
